Target: T1, hVEGF-A (human, UniProt P15692-4 27-191, limits assumed)
T1 construct: also called human VEGF-A; WT
Assay: KDR-VEGF competition ELISA
Each item that follows carries a reported IC50.
Please give a number only; it is taken to be in nM.

[Q] What measured IC50 goes with GCNIMLPFWGCKQDSDCLAGCVCQYYQSCG (designed binder, also called EM54) [VEGF_CKP9.54] ?
[A] 5.8

[Q] What measured IC50 goes with GCNIMLPFWGCGQSFECLAGCVCQYYQSCG (designed binder) [VEGF_CKP9.54.1] ?
[A] 0.2

[Q] What measured IC50 goes with GCQLMQPFWGCKQDSDCLAGCVCHWYQSCG (designed binder, also called E9) [VEGF_CKP9] ?
[A] 569

[Q] What measured IC50 goes with GCNIMLPFWGCGLDYDCLAGCVCQYYQSCG (designed binder) [VEGF_CKP9.54.2] ?
[A] 0.2

Alright, here's another binder for you.
[Q] What measured IC50 goes with GCNIMLPFWGCGPDLQCLAGCVCQYYQSCG (designed binder) [VEGF_CKP9.54.59] ?
[A] 0.5
